Test system: KB
Experiment: Cytotoxicity against human KB cells by sulforhodamine B assay
Assay type: functional
Details: read-out: ED50 (the source's name)
Attribute Measured: log10(EC50) (log10 of the value in µg/mL)
Note: values are log10 of EC50 expressed in µg/mL.

compound=CCC1=C(O)c2c(oc(-c3ccc(C)cc3)cc2=O)C(CC)(CC)C1=O recorded_number=1.14
compound="COC1=C(C)C(O)=C2C(=O)C=C(c3ccccc3)OC2C1(C)C (stereo unspecified)" recorded_number=1.59
compound="COC1=CC(O)=C2C(=O)C=C(c3ccccc3)OC2C1(C)C (stereo unspecified)" recorded_number=0.26

# log10(EC50) of `CCC1=C(O)c2c(occ(-c3ccccc3)c2=O)C(CC)(CC)C1=O` = 1.20
